Target Or System: Adenosine receptor A1 (Homo sapiens)
Assay Explanation: Agonist activity at human recombinant adenosine receptor-1 expressed in CHO cells assessed as inhibition of forskolin-stimulated cAMP production at 10 uM preincubated for 45 mins prior forskolin-induction measured after 15 mins by immunoassay relative to 10 uM CPA
Format: functional, cell-based
Measured Metric: inhibition (%)
Hi! Could you send only the number? It should be in %, unit omitted.

Please review the following examples before continuing.
[[record]]
structure_notation = "O[C@@H]1[C@H](O)[C@@H]2C[C@@H]2[C@H]1n1cnc2c(NCCCF)nc(Cl)nc21"
measured_metric = "inhibition"
quantitative_result = 23.2

[[record]]
structure_notation = "O[C@@H]1[C@H](O)[C@@H]2C[C@@H]2[C@H]1n1cnc2c(N[C@H]3C[C@H]4CC[C@H]3C4)nc(Cl)nc21"
measured_metric = "inhibition"
quantitative_result = 62.1


input: Consider the molecule O[C@@H]1[C@H](O)[C@@H]2C[C@@H]2[C@H]1n1cnc2c(NC3CC3)nc(Cl)nc21 and give its recorded inhibition.
output: 79

input: Consider the molecule O[C@@H]1[C@H](O)[C@@H]2C[C@@H]2[C@H]1n1cnc2c(NCC3CC3)nc(Cl)nc21 and give its recorded inhibition.
output: 81
